All figures here come from PubChem BioAssay (Tox21).

# SYSTEM_UNDER_TEST: Estrogen receptor beta (Homo sapiens) (UniProt Q92731)
# Sequence (Q92731 whole entry, looked up): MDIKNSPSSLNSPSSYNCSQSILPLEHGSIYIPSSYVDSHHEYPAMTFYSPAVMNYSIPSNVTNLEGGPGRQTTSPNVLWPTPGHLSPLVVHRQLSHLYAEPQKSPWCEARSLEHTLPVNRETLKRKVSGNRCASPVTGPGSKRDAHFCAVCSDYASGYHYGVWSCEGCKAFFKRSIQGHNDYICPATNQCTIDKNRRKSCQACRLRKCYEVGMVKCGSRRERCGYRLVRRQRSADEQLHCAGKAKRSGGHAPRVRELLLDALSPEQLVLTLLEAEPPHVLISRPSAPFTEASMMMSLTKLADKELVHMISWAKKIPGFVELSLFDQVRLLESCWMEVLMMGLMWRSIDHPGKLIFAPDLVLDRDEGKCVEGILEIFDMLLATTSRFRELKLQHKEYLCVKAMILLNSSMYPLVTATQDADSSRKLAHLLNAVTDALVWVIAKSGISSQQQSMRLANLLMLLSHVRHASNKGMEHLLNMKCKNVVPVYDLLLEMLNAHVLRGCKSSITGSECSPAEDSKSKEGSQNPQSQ
# TEST_METHOD_NOTES: qHTS assay to identify small molecule antagonists of the estrogen receptor beta (ER-beta) signaling pathway (AID 1259378)
# EXPERIMENTAL_CONTEXT: ER-beta-UAS-bla HEK293T, beta-lactamase FRET ratio, 16 h; series mostly up to 92.4 µM
# Source text: National Center for Advancing Translational Sciences [NCATS] NIH Chemical Genomics Center [NCGC] U.S. Environmental Protection Agency [EPA] National Institutes of Environmental Health Sciences [NIEHS] National Toxicology Program [NTP] U.S. Food and Drug Administration [FDA] Estrogen receptor (ER), a nuclear hormone receptor, plays an important role in development, metabolic homeostasis and reproduction. […]
Inconclusive results are not listed. Calls of active or inactive are those of the source. The call rests on the fitted dose curve; in most records, active means well fitted inhibition curve with a large enough effect in the signal ratio in the repeat runs (not every such curve was filed as active); inconclusive means weak or mixed curves, or effect the other way; inactive means no such curve, though single readings can be large or run the other way; the % refers to the signal ratio.
REPORTED_PROPERTY: activity, negative = inhibition

- MOLECULE: "CCCc1nc(C)c2c(=O)[nH]c(-c3cc(S(=O)(=O)N4CCN(CC)CC4)ccc3OCC)nn12"
  REPORTED_PROPERTY: "activity, negative = inhibition"
  VAL: "inactive"
- MOLECULE: "CC(C)CCCCCCCOC(=O)c1ccc(C(=O)OCCCCCCCC(C)C)c(C(=O)OCCCCCCCC(C)C)c1"
  REPORTED_PROPERTY: "activity, negative = inhibition"
  VAL: "inactive"
- MOLECULE: "S=c1[nH][nH]c(=S)s1"
  REPORTED_PROPERTY: "activity, negative = inhibition"
  VAL: "inactive"
- MOLECULE: "CC/C=C\\CCO"
  REPORTED_PROPERTY: "activity, negative = inhibition"
  VAL: "inactive"
- MOLECULE: "C=CC(C)(O)CC/C=C(/C)CCC=C(C)C (stereo unspecified)"
  REPORTED_PROPERTY: "activity, negative = inhibition"
  VAL: "inactive"
- MOLECULE: "Cc1ccc2ccccc2c1[N+](=O)[O-]"
  REPORTED_PROPERTY: "activity, negative = inhibition"
  VAL: "inactive"
- MOLECULE: "CC(=O)OCC(=O)[C@@]1(O)CC[C@H]2[C@@H]3CCC4=CC(=O)C=C[C@]4(C)[C@@]3(F)[C@@H](O)C[C@@]21C"
  REPORTED_PROPERTY: "activity, negative = inhibition"
  VAL: "inactive"
- MOLECULE: "CCC(C)C1N=C(C)C(C)S1 (stereo unspecified)"
  REPORTED_PROPERTY: "activity, negative = inhibition"
  VAL: "inactive"
- MOLECULE: "CCCCCCOC(=O)c1ccccc1"
  REPORTED_PROPERTY: "activity, negative = inhibition"
  VAL: "inactive"
- MOLECULE: "C[C@@H](O)[C@H]1C(=O)N2C(C(=O)O)=C(S[C@@H]3CN[C@H](CNS(N)(=O)=O)C3)[C@H](C)[C@H]12"
  REPORTED_PROPERTY: "activity, negative = inhibition"
  VAL: "inactive"
- MOLECULE: "O=C(Nc1ccc2c(c1)Cc1ccccc1-2)C(F)(F)F"
  REPORTED_PROPERTY: "activity, negative = inhibition"
  VAL: "inactive"
- MOLECULE: "CC(C)(C(=O)O)c1ccc(C(O)CCCN2CCC(C(O)(c3ccccc3)c3ccccc3)CC2)cc1 (stereo unspecified)"
  REPORTED_PROPERTY: "activity, negative = inhibition"
  VAL: "inactive"
- MOLECULE: "Cc1ccc2c(Cl)cc(Cl)c(O)c2n1"
  REPORTED_PROPERTY: "activity, negative = inhibition"
  VAL: "inactive"
- MOLECULE: "CC(O)CN (stereo unspecified)"
  REPORTED_PROPERTY: "activity, negative = inhibition"
  VAL: "inactive"
- MOLECULE: "CCCC1CCOC(C)S1 (stereo unspecified)"
  REPORTED_PROPERTY: "activity, negative = inhibition"
  VAL: "inactive"
- MOLECULE: "O=C(O)c1ccccc1-n1cc(C(=O)O)c(=O)c2cc(Nc3c(F)cc(F)cc3Cl)c(Cl)cc21"
  REPORTED_PROPERTY: "activity, negative = inhibition"
  VAL: "inactive"
